# targetUnderTest: T1, extracellular domain of the human leptin receptor (human, UniProt P48357 22-839)
# T1 construct: extracellular domain; It is treated as one construct; a tag is not mentioned for the ELISA and cross-linking experiments; also called hECD; recombinant leptin receptor extracellular domain
# T1 sequence (looked up): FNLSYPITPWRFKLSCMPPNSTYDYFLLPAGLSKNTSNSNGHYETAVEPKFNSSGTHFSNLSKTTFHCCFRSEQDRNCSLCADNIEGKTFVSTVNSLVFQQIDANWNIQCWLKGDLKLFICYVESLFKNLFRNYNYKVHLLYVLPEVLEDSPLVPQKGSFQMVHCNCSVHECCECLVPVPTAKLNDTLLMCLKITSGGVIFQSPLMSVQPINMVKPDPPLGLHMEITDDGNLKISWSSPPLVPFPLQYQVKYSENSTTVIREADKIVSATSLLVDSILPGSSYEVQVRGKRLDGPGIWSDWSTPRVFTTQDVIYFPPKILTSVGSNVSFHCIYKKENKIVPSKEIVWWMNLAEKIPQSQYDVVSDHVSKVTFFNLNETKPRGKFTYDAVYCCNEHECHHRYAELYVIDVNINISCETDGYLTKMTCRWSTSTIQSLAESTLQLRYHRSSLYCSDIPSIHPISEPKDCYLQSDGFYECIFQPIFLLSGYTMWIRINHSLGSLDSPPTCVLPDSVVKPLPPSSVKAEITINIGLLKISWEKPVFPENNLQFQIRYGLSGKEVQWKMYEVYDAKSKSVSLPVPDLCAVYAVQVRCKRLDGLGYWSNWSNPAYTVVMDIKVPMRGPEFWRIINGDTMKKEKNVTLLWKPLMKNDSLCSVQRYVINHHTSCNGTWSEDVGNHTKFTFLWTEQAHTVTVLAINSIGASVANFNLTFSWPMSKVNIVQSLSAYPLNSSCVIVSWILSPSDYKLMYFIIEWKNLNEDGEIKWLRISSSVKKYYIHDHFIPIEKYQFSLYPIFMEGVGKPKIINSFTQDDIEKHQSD
# testProtocol: SPR; leptin receptor ECD immobilized, antibody as analyte
// reported kon per item
Please state the figure in M⁻¹ s⁻¹; there is no need to write the unit.

{"binder": "S2H1 (antibody, V domains shown, also called SC2H1) VH: QVQLLQSGGGVVQPGRSLRLSCAASGFTFSSYGMHWVRQAPGKGLEWVAVISYDGSNKYYADSVKGRFTISRDNSKNTLYLQMNSLRAEDTAVYYCASLYENYFSLWGQGTLVTVSS VL: EIVLTQSPGTLSLSPGERATLSCRASQSVSSNYLAWYQQKPGQAPRLLIYGASSRPTGIPDRFSGSGSGTDFTLTISRLEPEDFAVYYCQQYAASPLTFGGGTKLEIK", "kon, M⁻¹ s⁻¹": 468000}

Return reported kon; argument: S2H6 (antibody, V domains shown, also called SC2H6) VH: QVQLLQSGGGVVQPGRSLRLSCAASGFTFSSYGMHWVRQAPGKGLEWVAVISYDGSNKYYADSVKGRFTISRDNSKNTLYLQMNSLRAEDTAVYYCASFQENYFTYWGQGTLVTVSS VL: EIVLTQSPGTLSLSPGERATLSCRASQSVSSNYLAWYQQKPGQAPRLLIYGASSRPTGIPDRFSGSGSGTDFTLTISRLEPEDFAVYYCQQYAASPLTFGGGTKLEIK
786000

State the recorded kon for this entry: S2H2 (antibody, V domains shown, also called SC2H2; 52H2) VH: QVQLLQSGGGVVQPGRSLRLSCAASGFTFSSYGMHWVRQAPGKGLEWVAVISYDGSNKYYADSVKGRFTISRDNSKNTLYLQMNSLRAEDTAVYYCATFRENYFEYWGQGTLVTVSS VL: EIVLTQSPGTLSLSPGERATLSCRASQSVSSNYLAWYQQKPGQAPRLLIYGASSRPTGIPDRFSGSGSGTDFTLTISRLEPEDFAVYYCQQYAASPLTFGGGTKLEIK
336000

Look up kon: S2H7 (antibody, V domains shown, also called SC2H7) VH: QVQLLQSGGGVVQPGRSLRLSCAASGFTFSSYGMHWVRQAPGKGLEWVAVISYDGSNKYYADSVKGRFTISRDNSKNTLYLQMNSLRAEDTAVYYCATRYENYFSTWGQGTLVTVSS VL: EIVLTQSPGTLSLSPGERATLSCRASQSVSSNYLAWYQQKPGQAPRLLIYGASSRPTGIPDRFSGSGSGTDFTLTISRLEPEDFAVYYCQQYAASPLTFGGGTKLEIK
268000

These entries and their values trace back to patent US20220275097A1.
